Numbers sourced from patent US4618610A.

- Tested on: platelet
- assay.notes: Test Method B: inhibition of platelet aggregation in platelet rich plasma
- Assay type: cell-based
- conditions.used: Oryctolagus cuniculus, collagen (2.5 ug/ml) as aggregation inducer, rabbit PRP, 37° C., read-out: ID50 Collagen (platelet aggregation)
Would you kindly list pIC50 for each of these molecules?
Numbers only, as −log10 of the molar value.

Below: 3 molecules and their reported pIC50.
| molecule | target.desc | pIC50 |
| --- | --- | --- |
| CC1NC(=O)NN=C1c1ccc(NC(=O)C2CC2)cc1 (stereo not shown) | platelet | 8.51 |
| CC(=O)Nc1ccc(C2=NNC(=O)NC2C)cc1 (stereo not shown) | platelet | 6.66 |
| CNC(=O)Nc1ccc(C2=NNC(=O)NC2C)cc1 (stereo not shown) | platelet | 6.39 |

Check the records and state pIC50 for CCOC(=O)Nc1ccc(C2=NNC(=O)NC2C)cc1 (stereo not shown)
7.16

* * *

- System: platelet
- assay.notes: Test Method B: inhibition of platelet aggregation in platelet rich plasma
- Format: cell-based
- conditions.used: Oryctolagus cuniculus, ADP (2.5 μM) as aggregation inducer, rabbit PRP, 37° C., read-out: ID50 ADP (platelet aggregation)
Provide the reported IC50 of each item.
Give bare numbers, in nM.

| compound | reported.measurement |
| --- | --- |
| CC(=O)Nc1ccc(C2=NNC(=O)NC2C)cc1 (stereo not shown) | 620 |
| CCOC(=O)Nc1ccc(C2=NNC(=O)NC2C)cc1 (stereo not shown) | 380 |
| CC1NC(=O)NN=C1c1ccc(NC(=O)C2CC2)cc1 (stereo not shown) | 34 |

Specify measured IC50 for CNC(=O)Nc1ccc(C2=NNC(=O)NC2C)cc1 (stereo not shown) .
740
